Test: Inhibition of Tel-fused SRC expressed in mouse BAF3 cells
Recorded metric: IC50 (nM)

Solved entries (count: 2):
Cc1ccc(C(=O)Nc2cccc(C(F)(F)F)c2)cc1Nc1nc2ccccc2n1-c1cc(NCCN2CCN(C)CC2)ncn1 :: 527
Cc1ccc(C(=O)Nc2ccccc2)cc1Nc1nc2ccccc2n1-c1cc(N)ncn1 :: 6170

(A) Cc1ccc(NC(=O)c2ccc(C(C)(C)C)s2)cc1Nc1nc2ccccc2n1-c1cc(N)ncn1
(B) Cc1ccc(NC(=O)c2cccc(C(F)(F)F)c2)cc1Nc1nc2ccccc2n1-c1cc(NCCCN)ncn1
Query block: So which one has the bigger IC50 here, A or B ? Selection: enter the item's label.
Result block: B

(I) Cc1ccc(NC(=O)c2cccc(C(F)(F)F)c2)cc1Nc1nc2ccccc2n1-c1cc(NCCCN2CCN(C)CC2)ncn1
(II) Cc1ccc(NC(=O)c2cccc(C(F)(F)F)c2)cc1Nc1nc2ccccc2n1-c1cc(NCCN2CCN(C)CC2)ncn1
Query block: So which one has the bigger IC50 here, I or II ? Selection: enter the item's label.
Result block: II
(II: 918 nM, I: 601 nM)

* * *

Experiment: Inhibition of Tel-fused LYN expressed in mouse BAF3 cells
pIC50: −log10 of the molar value.
Recorded metric: pIC50

Cc1ccc(NC(=O)c2cccc(C(F)(F)F)c2)cc1Nc1nc2ccccc2n1-c1cc(NCCc2ccccn2)ncn1 :: 6.59
CCN(CC)CCNc1cc(-n2c(Nc3cc(NC(=O)c4cccc(C(F)(F)F)c4)ccc3C)nc3ccccc32)ncn1 :: 6.19
Cc1ccc(NC(=O)c2cccc(C(F)(F)F)c2)cc1Nc1nc2ccccc2n1-c1cc(NCCO)ncn1 :: 6.40
Cc1ccc(C(=O)Nc2cccc(C(F)(F)F)c2)cc1Nc1nc2ccccc2n1-c1ncnc(N)c1C :: 5.10
Cc1cccc(NC(=O)c2ccc(C)c(Nc3nc4ccccc4n3-c3cc(NCCCN4CCN(C)CC4)ncn3)c2)c1 :: 5.91

(A) CCN(CC)CCCCNc1cc(-n2c(Nc3cc(C(=O)Nc4cccc(C)c4)ccc3C)nc3ccccc32)ncn1
(B) Cc1ccc(C(=O)Nc2ccccc2)cc1Nc1nc2ccccc2n1-c1cc(N)ncn1
Query block: So which one has the bigger pIC50 here, A or B ? Selection: enter the item's label.
Result block: A

* * *

Experiment: Inhibition of Tel-fused LCK expressed in mouse BAF3 cells
pIC50: −log10 of the molar value.
Recorded metric: pIC50

Solved entries (count: 8):
Cc1ccc(NC(=O)c2cccc(C(F)(F)F)c2)cc1Nc1nc2ccccc2n1-c1cc(Cl)ncn1 :: 5.57
Cc1ccc(NC(=O)c2ccc(C(C)(C)C)s2)cc1Nc1nc2ccccc2n1-c1cc(N)ncn1 :: 8.40
CCN(CC)CCCCNc1cc(-n2c(Nc3cc(NC(=O)c4cccc(C(F)(F)F)c4)ccc3C)nc3ccccc32)ncn1 :: 7.39
CCN(CC)CCNc1cc(-n2c(Nc3cc(NC(=O)c4cccc(C(F)(F)F)c4)ccc3C)nc3ccccc32)ncn1 :: 6.38
Cc1ccc(NC(=O)c2cccc(C(F)(F)F)c2)cc1Nc1nc2ccccc2n1-c1cc(NCCCN2CCN(C)CC2)ncn1 :: 7.60
Cc1ccc(C(=O)Nc2cccc(C(F)(F)F)c2)cc1Nc1nc2ccccc2n1-c1ncnc(N)c1C :: 5.35
Cc1cn(-c2cc(NC(=O)c3ccc(C)c(Nc4nc5ccccc5n4-c4cc(N)ncn4)c3)cc(C(F)(F)F)c2)cn1 :: 7.85
Cc1cccc(NC(=O)c2ccc(C)c(Nc3nc4ccccc4n3-c3cc(N)ncn3)c2)c1 :: 7.08

(1) Cc1cccc(C(=O)Nc2ccc(C)c(Nc3nc4ccccc4n3-c3cc(N)ncn3)c2)c1
(2) Cc1ccc(C(=O)Nc2cccc(Br)c2)cc1Nc1nc2ccccc2n1-c1cc(N)ncn1
(3) Cc1ccc(NC(=O)c2cccc(C(F)(F)F)c2)cc1Nc1nc2ccccc2n1-c1cc(NCCCCN(C)C)ncn1
(4) Cc1ccc(NC(=O)c2ccncc2Cl)cc1Nc1nc2ccccc2n1-c1cc(N)ncn1
Query block: // ranking: key=pIC50, reverse=True Write the labels out in the order the request specifies.
Result block: 1, 2, 3, 4
